# experimentalTarget: SARS-COV-2 Spike protein receptor binding domain (amino acids Arg319-Phe541) expressed with the Fc p (SARS-CoV-2)

[
  {
    "binder": "mAb10914 (antibody, V domains shown) VH: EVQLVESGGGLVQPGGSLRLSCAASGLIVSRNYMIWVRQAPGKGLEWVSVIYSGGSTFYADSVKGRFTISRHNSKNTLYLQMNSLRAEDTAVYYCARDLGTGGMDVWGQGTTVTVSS VL: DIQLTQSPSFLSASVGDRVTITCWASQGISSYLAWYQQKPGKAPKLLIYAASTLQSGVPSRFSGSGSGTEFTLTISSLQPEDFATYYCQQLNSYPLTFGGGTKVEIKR",
    "IC50 / nM": 0.98
  },
  {
    "binder": "mAb11008 (antibody, V domains shown) VH: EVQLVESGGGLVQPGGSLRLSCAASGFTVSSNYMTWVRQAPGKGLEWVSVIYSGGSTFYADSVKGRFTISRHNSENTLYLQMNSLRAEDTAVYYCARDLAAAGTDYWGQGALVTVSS VL: DIQLTQSPSFLSASVGDRVTITCWASQGISSYLAWYQQKPGKAPKLLIYAASTLQSGVPSRFSGSGSGTEFTLTISSLQPDDFATYYCQHLNSYLYTFGQGTKLEIKR",
    "IC50 / nM": 1.49
  },
  {
    "binder": "mAb10955 (antibody, V domains shown) VH: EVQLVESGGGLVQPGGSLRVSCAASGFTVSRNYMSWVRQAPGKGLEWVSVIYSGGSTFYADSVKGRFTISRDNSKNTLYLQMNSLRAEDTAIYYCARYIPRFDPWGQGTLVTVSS VL: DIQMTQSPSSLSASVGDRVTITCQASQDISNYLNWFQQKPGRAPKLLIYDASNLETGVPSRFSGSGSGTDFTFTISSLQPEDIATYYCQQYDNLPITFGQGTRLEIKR",
    "IC50 / nM": 0.141
  }
]
